These entries and their values trace back to ChEMBL document CHEMBL1629541.

experiment: AUC (0-infinity) in CD1 mouse plasma at 40 mg/kg, po administered as single dose; type: ADME, organism-based; parameters: time infinity, dose 40 mg/kg, route oral
Could you label it Condition met if measured AUC(0-inf) is 200 µg·h/mL or higher, and Condition not met otherwise?

In [3]: df
Out[3]:
                           substance_smiles              class
0  O=[N+]([O-])c1cn2c(n1)OC[C@@H](OCc1ccc(-c3ccc(C(F)(F)F)cn3)cc1)C2  Condition not met
1  O=[N+]([O-])c1cn2c(n1)OC[C@@H](OCc1ccc(-c3ccc(OC(F)(F)F)c(F)c3)nc1)C2  Condition not met
2  O=[N+]([O-])c1cn2c(n1)OC[C@@H](OCc1cnc(-c3ccc(OC(F)(F)F)cc3)nc1)C2  Condition not met
3  O=[N+]([O-])c1cn2c(n1)OC[C@@H](OCc1ccc(-c3ccc(C(F)(F)F)nc3)cc1)C2      Condition met
4  O=[N+]([O-])c1cn2c(n1)OC[C@@H](OCc1ccc(-c3ccc(OC(F)(F)F)c(F)c3)cn1)C2  Condition not met
5  O=[N+]([O-])c1cn2c(n1)OC[C@@H](OCc1ccc(-c3ccc(OC(F)(F)F)cc3)cn1)C2      Condition met
